Tested on: A498 renal
ASSAY_EXPLANATION: NCI tumour cell line growth inhibition, 48 h
Where a SMILES comes first, the peptide text is derived from it. [ ]: non-standard residue; d: D form. The star is where a group is joined. ξ: configuration not given here. NMeF = CN[C@@H](Cc1ccccc1)C(=O)O; NMeV = CN[C@H](C(=O)O)C(C)C; ξNMeN = CNC(CC(N)=O)C(=O)O; NMeA = CN[C@@H](C)C(=O)O; ξNMeV = CNC(C(=O)O)C(C)C; Boc = CC(C)(C)OC(=O)*

{"MOLECULE": "CC1(C)Oc2ccccc2OC1O (centres undefined)", "STUDY_TARGET": "A498 renal", "TGI": "> 100 µM"}
{"MOLECULE": "Cc1[nH]n(-c2ncc(C(=O)O)c(=O)[nH]2)c(=O)c1CCO", "STUDY_TARGET": "A498 renal", "TGI": "> 100 µM"}
{"MOLECULE": "COC(=O)[C@H](C)N(C)C(=O)C(CC(N)=O)N(C)C(=O)[C@H](Cc1ccccc1)N(C)C(=O)[C@@H]1CCCN1C(=O)[C@H](C(C)C)N(C)C(=O)C(C(C)C)N(C)C(=O)[C@@H](NC(=O)OC(C)(C)C)C(C)C (some centres undefined) (Boc-V[ξNMeV][NMeV]P[NMeF][ξNMeN][NMeA]-OMe)", "STUDY_TARGET": "A498 renal", "TGI": "> 75 µM"}
{"MOLECULE": "CCC(C)NC(=S)N/N=C(\\C)c1nc2ncccc2[nH]1 (centres undefined)", "STUDY_TARGET": "A498 renal", "TGI": "> 100 µM"}

---

Test system: T-47D breast
ASSAY_EXPLANATION: NCI tumour cell line growth inhibition, 48 h
PROPERTY_NAME: GI50

{"SMILES_TEXT": "CCCCOC(=O)CC(CC(=O)OCCCC)(OC(C)=O)C(=O)OCCCC", "STUDY_TARGET": "T-47D breast", "PROPERTY_NAME": "GI50", "VALUE_MEASURED": "26.4 µM"}
{"SMILES_TEXT": "COc1cccc2c1O/C(=C\\c1ncc([N+](=O)[O-])n1C)C2=O", "STUDY_TARGET": "T-47D breast", "PROPERTY_NAME": "GI50", "VALUE_MEASURED": "8.25 µM"}
{"SMILES_TEXT": "Cc1nn2c(/C=N/N=C(N)N)c(-c3ccc(Cl)c([N+](=O)[O-])c3)nc2s1", "STUDY_TARGET": "T-47D breast", "PROPERTY_NAME": "GI50", "VALUE_MEASURED": "0.481 µM"}

---

Each entry below lists one item and its recorded TGI value.
Tested on: UO-31 renal
ASSAY_EXPLANATION: NCI tumour cell line growth inhibition, 48 h
PROPERTY_NAME: TGI

{"COMPOUND": "CC1OC(Oc2c(-c3cc(O)c(O)c(O)c3)oc3cc(O)cc(O)c3c2=O)C(O)C(O)C1O (stereo not drawn)", "VALUE_MEASURED": "> 100 µM"}
{"COMPOUND": "C/C(CC(=O)Nc1ccc(Cl)c(Cl)c1)=N/NC(=O)C[N+](C)(C)C", "VALUE_MEASURED": "> 100 µM"}
{"COMPOUND": "CCCCNC(=O)c1cc(S(=O)(=O)n2cc[nH]c2=O)c(SC)cc1Cl", "VALUE_MEASURED": "> 100 µM"}
